protocol_description: binders of probe aFGF10 on microarray, primary screen, stem cell growth factor project, biochemical, small-molecule microarray, fluorescence 635/667 (AID 1071);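 note: score merges 667 nm spot intensity and signal to noise from triplicate slides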
condition: higher = more signal
// values below are reported composite z-score

[
  {
    "molecule": "Cc1ccc([C@@H]2CC=C(C(=O)O)[C@H](c3ccccc3)N2S(=O)(=O)c2ccc(C)cc2)cc1",
    "composite z-score": 1.02
  },
  {
    "molecule": "O=C1C2C=CC(C(O)C#Cc3ccccc3)N(Nc3ccccc3)C2C(=O)N1c1ccccc1 (configuration not stated)",
    "composite z-score": 0.208
  },
  {
    "molecule": "COCCOC(=O)N1C(=O)[C@@]2(c3cc(C#CCNC(N)=O)ccc31)[C@H](C(=O)N1CCCCCCC1)[C@H]1C(=O)O[C@H](c3ccccc3)[C@H](c3ccccc3)N1[C@@H]2c1ccccc1OCCO",
    "composite z-score": 0.452
  },
  {
    "molecule": "O=C(CS)NCCCCCCNC(=O)[C@@H]1C[C@@H]2C(=O)N[C@@H](Cc3ccccc3)C(=O)N2[C@@H]1c1ccc(O)cc1",
    "composite z-score": 0.922
  }
]

Lookup result for CCN1C(C)=C(C(=O)OC)[C@@H](c2ccccc2)N2C(=O)[C@@]3(C(=O)OC)O[C@@]12[C@@H]1C(=O)N(c2ccccc2)C(=O)[C@@H]13 ; measured composite z-score: 0.877

For this molecule ( COC(=O)[C@@]1(Cc2ccccc2N=[N+]=[N-])N=C(c2ccc(OCCCO)cc2)O[C@H]1c1ccccc1CN=[N+]=[N-] ), measured composite z-score is -0.136

Form: molecule = CCC(=O)[C@]12O[C@@]3([C@@H]4C(=O)OCC[C@@H]41)N(CC)C(C)=C(C(=O)OC)[C@@H](c1ccccc1)N3C2=O ; composite z-score = 0.0911

For CO[C@@H]1COC(=O)[C@@H]2CCCN2C(=O)CC=C[C@@H](C)[C@H](OC)COC(=O)[C@@H]2CCCN2C(=O)CC=C[C@H]1C the molecule record lists composite z-score as 0.0311

###

protocol_description: PSAC antagonists in infected red cells, primary screen, cell-based, P. falciparum Indochina, OD700, 1 h (AID 1154)
condition: P. falciparum Indochina infected RBC osmotic lysis, higher = more signal, called active from +8 up or from −8 down
The entries below come with measured z-score values attached.
Just the number, please, no unit attached.

Worked examples, 5 molecules total:
[
  {
    "molecule": "CO[C@@H]1COC(=O)CC=C[C@@H](C)[C@H](OC)COC(=O)CC=C[C@H]1C",
    "measured_property": "z-score",
    "recorded_result": -0.611
  },
  {
    "molecule": "O=C1O[C@H](c2ccccc2)[C@H](c2ccccc2)N2[C@H]1[C@@H](C(=O)Nc1nc3ccccc3s1)[C@]1(C(=O)Nc3ccc(C#CC4=CCCCC4)cc31)[C@H]2c1ccccc1OCCO",
    "measured_property": "z-score",
    "recorded_result": 1.96
  },
  {
    "molecule": "COCCOC(=O)N1C(=O)[C@@]2(c3cc(C#CC4=CCCCC4)ccc31)[C@H](c1ccc(O)cc1)N1[C@H](c3ccccc3)[C@H](c3ccccc3)OC(=O)[C@H]1[C@@H]2C(=O)N1CCCCCCC1",
    "measured_property": "z-score",
    "recorded_result": -0.138
  },
  {
    "molecule": "C#CCNC(/C=C/c1ccccc1)CO (centres undefined)",
    "measured_property": "z-score",
    "recorded_result": -0.181
  },
  {
    "molecule": "COc1ccc([Si](C)(C)[C@H]2[C@H](CC(=O)N3Cc4ccccc4C[C@H]3CO)O[C@@]3(C(=O)N(Cc4cccc(N5CCOC5=O)c4)c4ccccc43)[C@@H]2C)cc1",
    "measured_property": "z-score",
    "recorded_result": 4.02
  }
]

# z-score (molecule: CCc1cccc(NC(=O)O[C@H]2[C@H](OC(=O)Nc3ccccc3)[C@@H](OC(=O)Nc3ccccc3)[C@@H](OC)O[C@@H]2CO)c1 ) is 5.28

Memo: O=C1c2ccccc2[C@](Cc2ccccc2I)(C(=O)O)[C@H](c2ccc(CO)cc2)N1C1CCCCC1 , reported z-score: 3.72

Entry COc1ccc(-c2cc3c(c(-c4ccccc4)n2)[Si](C(C)C)(C(C)C)O[C@H]3c2ccccc2)cn1 ; z-score = 1.71

What the record says about COc1ccc([Si](C)(C)[C@H]2[C@H](CCO)O[C@@]3(C(=O)N(Cc4ccc(N5CCCCC5=O)cc4)c4ccccc43)[C@@H]2C)cc1 : z-score is 29.4

z-score measured on CCOC(=O)C[C@H]1[C@H](OC(=O)c2cc3ccccc3oc2=O)[C@@H](NC(=O)C2CCCCC2)c2cc(OCCCO)ccc2N1C(=O)c1ccc2ccccc2n1 = 4.81

Reported z-score for C=CCOC(=O)[C@@H]1[C@H]2C(=O)O[C@H](c3ccccc3)[C@H](c3ccccc3)N2[C@H](c2ccc(OCCOC(=O)[C@H]3C[C@H]4C(=O)N5CCC[C@H]5C(=O)N4[C@H]3c3ccc(O)cc3)cc2)[C@@]12C(=O)Nc1ccccc12 was 3.21
